Overview of reported Kd across a group of binders:
Target: T1, EsCas13d, nuclease-dead (Eubacterium siraeum, UniProt B0MS50, R295A;H300A;R849A;H854A)
T1 sequence: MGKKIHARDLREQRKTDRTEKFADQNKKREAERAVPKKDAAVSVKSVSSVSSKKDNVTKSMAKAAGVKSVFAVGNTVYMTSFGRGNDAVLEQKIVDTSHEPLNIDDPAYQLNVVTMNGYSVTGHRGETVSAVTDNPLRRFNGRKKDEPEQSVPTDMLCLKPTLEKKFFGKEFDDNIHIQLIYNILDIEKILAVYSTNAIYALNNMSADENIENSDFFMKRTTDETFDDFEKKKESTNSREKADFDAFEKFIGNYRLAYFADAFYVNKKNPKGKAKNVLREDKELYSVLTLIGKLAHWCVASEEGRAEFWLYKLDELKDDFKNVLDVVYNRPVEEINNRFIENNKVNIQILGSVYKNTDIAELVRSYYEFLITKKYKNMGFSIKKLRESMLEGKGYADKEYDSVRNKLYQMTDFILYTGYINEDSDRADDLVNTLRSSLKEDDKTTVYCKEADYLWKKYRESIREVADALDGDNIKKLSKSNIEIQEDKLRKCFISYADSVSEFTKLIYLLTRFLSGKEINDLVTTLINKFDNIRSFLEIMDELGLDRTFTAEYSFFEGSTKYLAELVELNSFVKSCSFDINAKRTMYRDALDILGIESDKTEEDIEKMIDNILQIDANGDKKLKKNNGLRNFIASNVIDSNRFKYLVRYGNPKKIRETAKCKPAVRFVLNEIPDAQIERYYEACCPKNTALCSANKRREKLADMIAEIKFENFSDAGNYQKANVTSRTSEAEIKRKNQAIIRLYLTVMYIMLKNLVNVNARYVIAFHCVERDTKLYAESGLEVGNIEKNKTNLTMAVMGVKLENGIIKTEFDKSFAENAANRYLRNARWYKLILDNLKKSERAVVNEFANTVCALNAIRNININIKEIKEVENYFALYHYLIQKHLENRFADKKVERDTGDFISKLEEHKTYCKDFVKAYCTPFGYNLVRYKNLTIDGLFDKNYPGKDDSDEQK
Test: crRNA (strand 1, pre-loaded); Mg2+; 40 mM Tris-HCl pH 7.5, 150 mM NaCl, 6 mM MgCl2, 1 mM DTT, 0.1% Tween-20, 0.2 mg/ml BSA; 25 C; 10 min per concentration, then washed
Settings: tags: His6-TwinStrep-SUMO cleaved; N-terminal SNAP kept (SNAP-Surface 488); label: 3' end held by stalled T7 RNA polymerase
Could you give me the number in µM? Just the number is fine.

Check out these entries, answers already filled in.
Item target 1 MT 5'PFS GCA 3'PFS ACU (mixed) RNA 1: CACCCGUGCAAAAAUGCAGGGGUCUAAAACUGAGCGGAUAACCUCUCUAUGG RNA 2: GGGAAUGGAUCCACAUCUACGAAUUCGCACCAUAGAGAGGUUAUCCGCUCAACUAGAUCGGAAGAGCACACGU has what recorded Kd?
0.0185

Give its Kd value. Item: target 2 MT 5'PFS GCA 3'PFS AUC (mixed) RNA 1: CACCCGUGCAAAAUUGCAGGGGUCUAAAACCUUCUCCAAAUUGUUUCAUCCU RNA 2: GGGAAUGGAUCCACAUCUACGAAUUCGCAAGGAUGAAACAAUUUGGAGAAGAUCAGAUCGGAAGAGCACACGU
0.014

Let us move to another entry and its Kd.
Requested field: Kd. Item: target 1 insU 3' of 22,insA 3' of 6 (mixed) RNA 1: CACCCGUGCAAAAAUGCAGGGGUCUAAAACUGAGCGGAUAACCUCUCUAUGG RNA 2: GGGAAUGGAUCCACAUCUACGAAUUCGUACUCAUAGAGAGGUUAUCCAGCUCACCGAGAUCGGAAGAGCACACGU
0.055
